- MEASURED_TARGET: Glycogen synthase kinase-3 (Homo sapiens, UniProt P49840+P49841)
- METHOD_SUMMARY: Inhibition of GSK3
- Assay type: protein assay
Given measured Log IC50, output yes (1) if it is greater than or equal to -8 and no (0) if not.

> print(dat)
                                   compound   group
1  COc1cccc(-c2c[nH]c3c(N/N=C/c4ccncc4)ncnc23)c1 [GW814408X]  no (0)

For this compound, is measured Log IC50 -8 or higher? COc1cccc(-n2ccc3c(N/N=C/c4ccncc4)ncnc32)c1
yes (1)

Determine whether measured Log IC50 meets or exceeds -8 for COc1cccc(-n2cnc3c(N/N=C/c4ccncc4)ncnc32)c1 [GW813360X]
yes (1)

I'd appreciate it if you could say whether COc1cccc(-c2[nH]nc3c(N/N=C/c4ccncc4)ncnc23)c1 has Log IC50 at least equal to -8.
no (0)

Does the reported Log IC50 for COc1cccc(-c2cn(C)c3c(N/N=C/c4ccncc4)ncnc23)c1 fall at or above the -8 mark?
yes (1)
